Tested on: MS2 coat protein
Experimental protocol: apparent KD of MS2 coat protein; designed switch direction (-1 OFF switch, 1 ON switch): -1; higher = weaker reporter binding
Test conditions: Eterna round: R95; input ligand: FMN 200 uM
Metric name: apparent KD of MS2 coat protein (nM)
Provide only the numeric value, understood in nM.

Sequence text	System name	Metric name	Measured value
AUUUAAACAUAGGAUAUCGAAUUUAUCAUUUAACGAGAAGGAUGAACAUGAGGAUCACCCAUGUGGUAUCAUGG [Mat - Exclusion 6 - JL Mod - D4] (puzzle: Exclusion 6)	MS2 coat protein	apparent KD of MS2 coat protein	398

Query: Consider the sequence shown here: AGUACUAACACGAAAGUGUUAGUACAAUAAGCUUGUAUUACAUGAGGAUCACCCAUGUCCUCAUAAGCUCGUCUUAU [Mat - Sensor v3 - Turn-off var 2 - D46] (puzzle: Sensor v3, turn-off variant 2) What is its recorded apparent KD of MS2 coat protein?
Response: 316

Query: Given GAUUAUGCGAGCUUUAGGGACAUGAGGAUCACCCAUGUUCGUCUUAUUAGUCUGGGUGCACUGACAUACCUAAAUCU [JMF 93] (puzzle: Sensor v3, turn-off variant 1) , state its recorded apparent KD of MS2 coat protein.
Response: 169

Query: Look up apparent KD of MS2 coat protein: CGUACUGAAGUUAGGAUAUUGUCUCGGAUACGAAACAAGAAGGGACAUGAGGAUCACCCAUGUAGACAGUACGA [Malc #30 mod 4] (puzzle: Brourd's mod of Exclusion 4)
Response: 24.7

Query: Return reported apparent KD of MS2 coat protein; argument: CUCUUGUCAGGAUAUCAACGCCGCCCACAUGGGCAGCGAAAUGAGAAGGGACAUGAGGAUCACCCAUGUUAAAA [Retema] (puzzle: Exclusion 4)
Response: 30.4
